# PROCEDURE_DETAILS: Pharmacokinetics after single subcutaneous dose in rats
# Type: in vivo
# MEASUREMENT_CONTEXT: in vivo, sc; rat, 1 mg/kg subcutaneous
# Procedure: A single dosage of NAP and the NAP derivative of BMEC-NAP0706 were subcutaneously administered to rats respectively, and blood samples were obtained at different time intervals. […] A time-plasma concentration relationship was established and pharmacokinetic parameters were calculated. […] Sample pretreatment was as follows: The frozen serum was thawed in an ice bath. […] The sample was analyzed with HPLC-MS/MS system. The sample analysis was as described below. […] Each sample was analyzed for 15 min. […]
MEASURED_ATTRIBUTE: Cmax (ng/mL)
Numbers only; they are read as ng/mL.

Q. Provide measured Cmax value, entry: CC[C@H](C)[C@H](NC(=O)[C@H](CO)NC(=O)[C@@H](NC(=O)[C@@H]1CCCN1C(=O)[C@H](C)NC(=O)[C@@H](N)CC(N)=O)C(C)C)C(=O)N1CCC[C@H]1C(=O)N[C@@H](CCC(N)=O)C(=O)O [BMEC-NAP, H-NAPVSIPQ-OH, reference compound]
A. 55.5

Q. Identify measured Cmax associated with CC[C@H](C)[C@H](NC(=O)[C@H](CO)NC(=O)[C@@H](NC(=O)[C@@H]1CCCN1C(=O)[C@H](C)NC(=O)[C@H](CC(N)=O)NC(=O)OCC1c2ccccc2-c2ccccc21)C(C)C)C(=O)N1CCC[C@H]1C(=O)N[C@@H](CCC(N)=O)C(=O)O
A. 101

###

# PROCEDURE_DETAILS: Pharmacokinetics after single subcutaneous dose in rats
# Type: in vivo
# MEASUREMENT_CONTEXT: in vivo, sc; rat, 1 mg/kg subcutaneous; read-out: T½ (converted)
MEASURED_ATTRIBUTE: half-life

Q. Query half-life for CC[C@H](C)[C@H](NC(=O)[C@H](CO)NC(=O)[C@@H](NC(=O)[C@@H]1CCCN1C(=O)[C@H](C)NC(=O)[C@@H](N)CC(N)=O)C(C)C)C(=O)N1CCC[C@H]1C(=O)N[C@@H](CCC(N)=O)C(=O)O [BMEC-NAP, H-NAPVSIPQ-OH, reference compound]
A. 51 min

Q. Quick one: give measured half-life for CC[C@H](C)[C@H](NC(=O)[C@H](CO)NC(=O)[C@@H](NC(=O)[C@@H]1CCCN1C(=O)[C@H](C)NC(=O)[C@H](CC(N)=O)NC(=O)OCC1c2ccccc2-c2ccccc21)C(C)C)C(=O)N1CCC[C@H]1C(=O)N[C@@H](CCC(N)=O)C(=O)O [BMEC-NAP0706, Fmoc-NAPVSIPQ-OH]
A. 54.6 min

###

# PROCEDURE_DETAILS: Stability in Hanks' balanced salt solution (HBSS)
# Assay type: physicochemical
# MEASUREMENT_CONTEXT: 37° C., relative to initial conc. in HBSS = 100.00
# Procedure: The stability of the NAP derivatives prepared by EXAMPLE 1 was measured with the system of human colon cancer cell, Caco-2 cell. […] The TEER of the Caco-2 cell monolayer was measured over 350 Ω×cm^2. The stability of the NAP derivatives in the Hanks' balanced salt solutions (HBSS) was measured by the concentration changes of NAP and the NAP derivatives incubated in the HBSS at 37° C. for 4 hours. […]
MEASURED_ATTRIBUTE: Conc. after 4-hour in HBSS
Please reply with the value in numeric form only.

Q. Give recorded Conc. after 4-hour in HBSS. H-NAPISIPAN-OH [BMEC-NAP0608, H-NAPISIPAN-OH]
A. 110.89

Q. Using the record for Adipyl-NAPVSIPQ-NH2 [BMEC-NAP0202] , state its measured Conc. after 4-hour in HBSS.
A. 98.38

Q. Quick one: give measured Conc. after 4-hour in HBSS for H-NAPISIPQ-OH [BMEC-NAP0604, H-NAPISIPQ-OH]
A. 103.83

Q. Give the value of Conc. after 4-hour in HBSS reported for the following: H-QAPVSIPQ-OH [BMEC-NAP0602, H-QAPVSIPQ-OH]
A. 104.94

Q. Check the records and state Conc. after 4-hour in HBSS for H-QAPVSVPAQ-OH [BMEC-NAP0607, H-QAPVSVPAQ-OH]
A. 97.33

Q. Answer with the recorded Conc. after 4-hour in HBSS of H-NAPVSLPQ-OH [BMEC-NAP0606, H-NAPVSLPQ-OH] only.
A. 99.42

Q. Provide Conc. after 4-hour in HBSS value for the following substance: H-NAPVSIPN-OH [BMEC-NAP0603, H-NAPVSIPN-OH]
A. 101.90

Q. Consider the substance Adipyl-NAPVSIPQ-OH [BMEC-NAP0102] . State its measured Conc. after 4-hour in HBSS.
A. 99.95

Q. Consider the substance H-NAPVSVPQ-OH [BMEC-NAP0605, H-NAPVSVPQ-OH] and give its recorded Conc. after 4-hour in HBSS.
A. 104.25

###

# Test system: Caco-2 cell
# PROCEDURE_DETAILS: Stability in the Caco-2 cell system
# Format: in vitro ADME, human
# MEASUREMENT_CONTEXT: 4-hour incubation in Caco-2 Transwell; relative to initial conc. = 100.00 (500 μM)
# Method: The stability of the NAP derivatives prepared by EXAMPLE 1 was measured with the system of human colon cancer cell, Caco-2 cell. […] The TEER of the Caco-2 cell monolayer was measured over 350 Ω×cm^2. The stability of the NAP derivatives in the Hanks' balanced salt solutions (HBSS) was measured by the concentration changes of NAP and the NAP derivatives incubated in the HBSS at 37° C. for 4 hours. […]
So I've got a bunch of substances here, and I need their Conc. after 4-hour in Caco-2 cells values.
Answer with the value's number alone.

Q. Quick one: give measured Conc. after 4-hour in Caco-2 cells for Adipyl-NAPVSIPQ-NH2 [BMEC-NAP0202]
A. 95.59

Q. Report Conc. after 4-hour in Caco-2 cells, nothing else, for this substance: Adipyl-NAPVSIPQ-OH [BMEC-NAP0102]
A. 60.72

Q. Quick one: give measured Conc. after 4-hour in Caco-2 cells for H-QAPVSIPQ-OH [BMEC-NAP0602, H-QAPVSIPQ-OH]
A. 21.81

Q. Supply reported Conc. after 4-hour in Caco-2 cells belonging to this substance: H-NAPISIPQ-OH [BMEC-NAP0604, H-NAPISIPQ-OH]
A. 23.89

Q. Report Conc. after 4-hour in Caco-2 cells, nothing else, for this substance: H-NAPISIPAN-OH [BMEC-NAP0608, H-NAPISIPAN-OH]
A. 30.58

Q. Annotate the substance H-NAPVSIPN-OH [BMEC-NAP0603, H-NAPVSIPN-OH] with its measured Conc. after 4-hour in Caco-2 cells.
A. 29.17

Q. Please report Conc. after 4-hour in Caco-2 cells for the following substance: H-QAPVSVPAQ-OH [BMEC-NAP0607, H-QAPVSVPAQ-OH]
A. 16.54

Q. Report measured Conc. after 4-hour in Caco-2 cells; entry is H-NAPVSLPQ-OH [BMEC-NAP0606, H-NAPVSLPQ-OH]
A. 11.54

Q. Tell me measured Conc. after 4-hour in Caco-2 cells for H-NAPVSVPQ-OH [BMEC-NAP0605, H-NAPVSVPQ-OH] please.
A. 27.76

###

Consider the following compounds; for each one, report its Conc. after 4-hour in Caco-2 cells.
# System: Caco-2 cell
# PROCEDURE_DETAILS: Stability in the Caco-2 cell system
# Type: in vitro ADME, human
# MEASUREMENT_CONTEXT: 4-hour incubation in Caco-2 Transwell; relative to initial conc. = 100.00 (500 μM)
# Experimental: The stability of the NAP derivatives prepared by EXAMPLE 1 was measured with the system of human colon cancer cell, Caco-2 cell. […] The TEER of the Caco-2 cell monolayer was measured over 350 Ω×cm^2. The stability of the NAP derivatives in the Hanks' balanced salt solutions (HBSS) was measured by the concentration changes of NAP and the NAP derivatives incubated in the HBSS at 37° C. for 4 hours. […]
Where a SMILES comes first, the peptide text is derived from it. Bridges are numbered along the chain shown (N, C = ends).
No unit in the answer, please; the number alone is enough.

Q. For CC[C@H](C)[C@@H]1NC(=O)[C@H](CO)NC(=O)[C@H](C(C)C)NC(=O)[C@@H]2CCCN2C(=O)[C@H](C)NC(=O)[C@H](CC(N)=O)NC(=O)[C@H](CCC(N)=O)NC(=O)[C@@H]2CCCN2C1=O , write its Conc. after 4-hour in Caco-2 cells.
A. 94.72

Q. Kindly indicate its recorded Conc. after 4-hour in Caco-2 cells. Item: CC[C@H](C)[C@H](NC(=O)[C@H](CO)NC(=O)[C@@H](NC(=O)[C@@H]1CCCN1C(=O)[C@H](C)NC(=O)[C@H](CC(N)=O)NC(=O)OCC(C)C)C(C)C)C(=O)N1CCC[C@H]1C(=O)N[C@@H](CCC(N)=O)C(N)=O
A. 87.00

Q. Specify Conc. after 4-hour in Caco-2 cells for CC[C@H](C)[C@H](NC(=O)[C@H](CO)NC(=O)[C@@H](NC(=O)[C@@H]1CCCN1C(=O)[C@H](C)NC(=O)[C@H](CC(N)=O)NC(=O)c1cccc2ccccc12)C(C)C)C(=O)N1CCC[C@H]1C(=O)N[C@@H](CCC(N)=O)C(=O)O and stop.
A. 61.61

Q. Please report Conc. after 4-hour in Caco-2 cells for the following compound: CC[C@H](C)[C@H](NC(=O)[C@H](CO)NC(=O)[C@@H](NC(=O)[C@@H]1CCCN1C(=O)[C@H](C)NC(=O)[C@H](CC(N)=O)NC(=O)OCc1ccccc1)C(C)C)C(=O)N1CCC[C@H]1C(=O)N[C@@H](CCC(N)=O)C(=O)O
A. 72.93

Q. Give recorded Conc. after 4-hour in Caco-2 cells. CC[C@H](C)[C@H](NC(=O)[C@H](CO)NC(=O)[C@@H](NC(=O)[C@@H]1CCCN1C(=O)[C@H](C)NC(=O)[C@H](CC(N)=O)NC(=O)c1cccs1)C(C)C)C(=O)N1CCC[C@H]1C(=O)N[C@@H](CCC(N)=O)C(=O)O
A. 73.69

Q. Supply Conc. after 4-hour in Caco-2 cells value. Item: CC[C@H](C)[C@H](NC(=O)[C@H](CO)NC(=O)[C@@H](NC(=O)[C@@H]1CCCN1C(=O)[C@H](C)NC(=O)[C@H](CC(N)=O)NC(=O)OCC1c2ccccc2-c2ccccc21)C(C)C)C(=O)N1CCC[C@H]1C(=O)N[C@@H](CCC(N)=O)C(N)=O
A. 76.24

Q. Output Conc. after 4-hour in Caco-2 cells of CCCCCCCCC(=O)N[C@@H](CC(N)=O)C(=O)N[C@@H](C)C(=O)N1CCC[C@H]1C(=O)N[C@H](C(=O)N[C@@H](CO)C(=O)N[C@H](C(=O)N1CCC[C@H]1C(=O)N[C@@H](CCC(N)=O)C(=O)O)[C@@H](C)CC)C(C)C [BMEC-NAP0107, C8H17CO-NAPVSIPQ-OH]
A. 24.21

Q. Return the recorded Conc. after 4-hour in Caco-2 cells value; entry: CC[C@H](C)[C@H](NC(=O)[C@H](CO)NC(=O)[C@@H](NC(=O)[C@@H]1CCCN1C(=O)[C@H](C)NC(=O)[C@H](CC(N)=O)NC(=O)c1ccccc1)C(C)C)C(=O)N1CCC[C@H]1C(=O)N[C@@H](CCC(N)=O)C(=O)O
A. 78.97

Q. Give reported Conc. after 4-hour in Caco-2 cells value for CC[C@H](C)[C@H](NC(=O)[C@H](COP(=O)(O)O)NC(=O)[C@@H](NC(=O)[C@@H]1CCCN1C(=O)[C@H](C)NC(=O)[C@@H](N)CC(N)=O)C(C)C)C(=O)N1CCC[C@H]1C(=O)N[C@@H](CCC(N)=O)C(=O)O
A. 94.19

Q. Give Conc. after 4-hour in Caco-2 cells for CCCCC(=O)N[C@@H](CC(N)=O)C(=O)N[C@@H](C)C(=O)N1CCC[C@H]1C(=O)N[C@H](C(=O)N[C@@H](CO)C(=O)N[C@H](C(=O)N1CCC[C@H]1C(=O)N[C@@H](CCC(N)=O)C(=O)O)[C@@H](C)CC)C(C)C
A. 49.86

Q. Find the measured Conc. after 4-hour in Caco-2 cells of CC[C@H](C)[C@@H]1NC(=O)[C@H](CO)NC(=O)[C@H](C(C)C)NC(=O)[C@@H]2CCCN2C(=O)[C@H](C)NC(=O)[C@H](CC(N)=O)NC(=O)[C@@H](N)CSSC[C@@H](C(=O)O)NC(=O)[C@H](CCC(N)=O)NC(=O)[C@@H]2CCCN2C1=O [BMEC-NAP0302] (H-CNAPVSIPQC-OH; disulfide 1-10; N-terminus and C-terminus assumed) and report it.
A. 81.33

Q. // fetch Conc. after 4-hour in Caco-2 cells given entry CCCCCCOC(=O)N[C@@H](CC(N)=O)C(=O)N[C@@H](C)C(=O)N1CCC[C@H]1C(=O)N[C@H](C(=O)N[C@@H](CO)C(=O)N[C@H](C(=O)N1CCC[C@H]1C(=O)N[C@@H](CCC(N)=O)C(N)=O)[C@@H](C)CC)C(C)C
A. 82.71

Q. Please give the documented Conc. after 4-hour in Caco-2 cells of CCCC(=O)N[C@@H](CC(N)=O)C(=O)N[C@@H](C)C(=O)N1CCC[C@H]1C(=O)N[C@H](C(=O)N[C@@H](CO)C(=O)N[C@H](C(=O)N1CCC[C@H]1C(=O)N[C@@H](CCC(N)=O)C(N)=O)[C@@H](C)CC)C(C)C
A. 94.18

Q. Specify Conc. after 4-hour in Caco-2 cells for CCCCCCCCCCCCOC(=O)N[C@@H](CC(N)=O)C(=O)N[C@@H](C)C(=O)N1CCC[C@H]1C(=O)N[C@H](C(=O)N[C@@H](CO)C(=O)N[C@H](C(=O)N1CCC[C@H]1C(=O)N[C@@H](CCC(N)=O)C(=O)O)[C@@H](C)CC)C(C)C and stop.
A. 97.75
